system: C-G base pair at N-terminal position of binding site 5′-A T N T A C A-3′ (N=C), 285 bp PCR product from plasmid pCW15; test: Quantitative DNase I footprint titration, C-G site; conditions: 22° C., pH 7.0, 10 mM Tris-HCl, 10 mM KCl, 10 mM MgCl2, 5 mM CaCl2, mean of at least three, SD in parentheses
value_kind: Equilibrium association constant, C-G

Examples with answers:
CC(=O)Nc1ccsc1C(=O)Nc1cc(C(=O)Nc2cc(C(=O)Nc3cc(C(=O)NCCCC(=O)Nc4cn(C)c(C(=O)Nc5cc(C(=O)Nc6cc(C(=O)Nc7cc(C(=O)NCCC(=O)NCCCN(C)C)n(C)c7)n(C)c6)n(C)c5)n4)n(C)c3)n(C)c2)n(C)c1 [compound 4]; 6.0 (0.2) × 10^8 M^−1
CN(C)CCCNC(=O)CCNC(=O)c1cc(NC(=O)c2cc(NC(=O)c3cc(NC(=O)c4nc(NC(=O)CCCNC(=O)c5cc(NC(=O)c6cc(NC(=O)c7cc(NC(=O)c8sccc8N)cn7C)cn6C)cn5C)cn4C)cn3C)cn2C)cn1C [compound 3]; 2.2 (0.3) × 10^8 M^−1
CN(C)CCCNC(=O)CCNC(=O)c1cc(NC(=O)c2cc(NC(=O)c3cc(NC(=O)c4nc(NC(=O)CCCNC(=O)c5cc(NC(=O)c6cc(NC(=O)c7cc(NC(=O)c8cccn8C)cn7C)cn6C)cn5C)cn4C)cn3C)cn2C)cn1C [compound 10]; 2.6 (0.3) × 10^8 M^−1
Cc1ccsc1C(=O)Nc1cc(C(=O)Nc2cc(C(=O)Nc3cc(C(=O)NCCCC(=O)Nc4cn(C)c(C(=O)Nc5cc(C(=O)Nc6cc(C(=O)Nc7cc(C(=O)NCCC(=O)NCCCN(C)C)n(C)c7)n(C)c6)n(C)c5)n4)n(C)c3)n(C)c2)n(C)c1 [compound 2]; 1.0 (0.3) × 10^7 M^−1
CN(C)CCCNC(=O)CCNC(=O)c1cc(NC(=O)c2cc(NC(=O)c3cc(NC(=O)c4nc(NC(=O)CCCNC(=O)c5cc(NC(=O)c6cc(NC(=O)c7cc(NC(=O)c8sccc8O)cn7C)cn6C)cn5C)cn4C)cn3C)cn2C)cn1C [compound 5]; 8.4 (0.1) × 10^7 M^−1

Which Equilibrium association constant, C-G value belongs to CN(C)CCCNC(=O)CCNC(=O)c1cc(NC(=O)c2cc(NC(=O)c3cc(NC(=O)c4nc(NC(=O)CCCNC(=O)c5cc(NC(=O)c6cc(NC(=O)c7cc(NC(=O)c8nccn8C)cn7C)cn6C)cn5C)cn4C)cn3C)cn2C)cn1C [compound 9] ? 3.2 (0.4) × 10^9 M^−1

Which Equilibrium association constant, C-G value belongs to CN(C)CCCNC(=O)CCNC(=O)c1cc(NC(=O)c2cc(NC(=O)c3cc(NC(=O)c4nc(NC(=O)CCCNC(=O)c5cc(NC(=O)c6cc(NC(=O)c7cc(NC(=O)c8sccc8Cl)cn7C)cn6C)cn5C)cn4C)cn3C)cn2C)cn1C [compound 8] ? 2.1 (1.1)× 10^8 M^−1

Which Equilibrium association constant, C-G value belongs to CN(C)CCCNC(=O)CCNC(=O)c1cc(NC(=O)c2cc(NC(=O)c3cc(NC(=O)c4nc(NC(=O)CCCNC(=O)c5cc(NC(=O)c6cc(NC(=O)c7cc(NC(=O)c8sccc8F)cn7C)cn6C)cn5C)cn4C)cn3C)cn2C)cn1C [compound 7] ? 2.9 (0.3) × 10^8 M^−1

Which Equilibrium association constant, C-G value belongs to CN(C)CCCNC(=O)CCNC(=O)c1cc(NC(=O)c2cc(NC(=O)c3cc(NC(=O)c4nc(NC(=O)CCCNC(=O)c5cc(NC(=O)c6cc(NC(=O)c7cc(NC(=O)c8cccs8)cn7C)cn6C)cn5C)cn4C)cn3C)cn2C)cn1C [compound 1] ? 2.2 (0.3) × 10^9 M^−1

====

system: A-T base pair at N-terminal position of binding site 5′-A T N T A C A-3′ (N=A), 285 bp PCR product from plasmid pCW15; assay: Quantitative DNase I footprint titration, A-T site; conditions: 22° C., pH 7.0, 10 mM Tris-HCl, 10 mM KCl, 10 mM MgCl2, 5 mM CaCl2, mean of at least three, SD in parentheses
value_kind: Equilibrium association constant, A-T

Examples with answers:
CN(C)CCCNC(=O)CCNC(=O)c1cc(NC(=O)c2cc(NC(=O)c3cc(NC(=O)c4nc(NC(=O)CCCNC(=O)c5cc(NC(=O)c6cc(NC(=O)c7cc(NC(=O)c8sccc8Cl)cn7C)cn6C)cn5C)cn4C)cn3C)cn2C)cn1C; 3.7 (0.2) × 10^9 M^−1
CN(C)CCCNC(=O)CCNC(=O)c1cc(NC(=O)c2cc(NC(=O)c3cc(NC(=O)c4nc(NC(=O)CCCNC(=O)c5cc(NC(=O)c6cc(NC(=O)c7cc(NC(=O)c8sccc8F)cn7C)cn6C)cn5C)cn4C)cn3C)cn2C)cn1C; 3.9 (0.3) × 10^9 M^−1

Which Equilibrium association constant, A-T value belongs to `CN(C)CCCNC(=O)CCNC(=O)c1cc(NC(=O)c2cc(NC(=O)c3cc(NC(=O)c4nc(NC(=O)CCCNC(=O)c5cc(NC(=O)c6cc(NC(=O)c7cc(NC(=O)c8sccc8N)cn7C)cn6C)cn5C)cn4C)cn3C)cn2C)cn1C` ? 4.6 (0.6) × 10^9 M^−1

Which Equilibrium association constant, A-T value belongs to `Cc1ccsc1C(=O)Nc1cc(C(=O)Nc2cc(C(=O)Nc3cc(C(=O)NCCCC(=O)Nc4cn(C)c(C(=O)Nc5cc(C(=O)Nc6cc(C(=O)Nc7cc(C(=O)NCCC(=O)NCCCN(C)C)n(C)c7)n(C)c6)n(C)c5)n4)n(C)c3)n(C)c2)n(C)c1` ? 1.4 (0.2) × 10^9 M^−1

====

tested on: G-C base pair at N-terminal position, binding site 5′-A T G T A C A-3′, 285 bp PCR product from plasmid pCW15; test: Quantitative DNase I footprint titration, G-C site; details: DNase I footprint titration, 22° C., pH 7.0, 10 mM Tris-HCl, 10 mM KCl, 10 mM MgCl2, 5 mM CaCl2; mean of at least three, SD in parentheses
value_kind: Equilibrium association constant, G-C

CN(C)CCCNC(=O)CCNC(=O)c1cc(NC(=O)c2cc(NC(=O)c3cc(NC(=O)c4nc(NC(=O)CCCNC(=O)c5cc(NC(=O)c6cc(NC(=O)c7cc(NC(=O)c8cccs8)cn7C)cn6C)cn5C)cn4C)cn3C)cn2C)cn1C; 4.3 (0.4) × 10^8 M^−1
CN(C)CCCNC(=O)CCNC(=O)c1cc(NC(=O)c2cc(NC(=O)c3cc(NC(=O)c4nc(NC(=O)CCCNC(=O)c5cc(NC(=O)c6cc(NC(=O)c7cc(NC(=O)c8sccc8O)cn7C)cn6C)cn5C)cn4C)cn3C)cn2C)cn1C; 2.1 (0.3) × 10^8 M^−1
CC(=O)Nc1ccsc1C(=O)Nc1cc(C(=O)Nc2cc(C(=O)Nc3cc(C(=O)NCCCC(=O)Nc4cn(C)c(C(=O)Nc5cc(C(=O)Nc6cc(C(=O)Nc7cc(C(=O)NCCC(=O)NCCCN(C)C)n(C)c7)n(C)c6)n(C)c5)n4)n(C)c3)n(C)c2)n(C)c1; 6.6 (0.4) × 10^8 M^−1
CN(C)CCCNC(=O)CCNC(=O)c1cc(NC(=O)c2cc(NC(=O)c3cc(NC(=O)c4nc(NC(=O)CCCNC(=O)c5cc(NC(=O)c6cc(NC(=O)c7cc(NC(=O)c8cccn8C)cn7C)cn6C)cn5C)cn4C)cn3C)cn2C)cn1C; 1.1 (0.1) × 10^9 M^−1
CN(C)CCCNC(=O)CCNC(=O)c1cc(NC(=O)c2cc(NC(=O)c3cc(NC(=O)c4nc(NC(=O)CCCNC(=O)c5cc(NC(=O)c6cc(NC(=O)c7cc(NC(=O)c8sccc8N)cn7C)cn6C)cn5C)cn4C)cn3C)cn2C)cn1C; 7.8 (0.9) × 10^8 M^−1

Which Equilibrium association constant, G-C value belongs to `CN(C)CCCNC(=O)CCNC(=O)c1cc(NC(=O)c2cc(NC(=O)c3cc(NC(=O)c4nc(NC(=O)CCCNC(=O)c5cc(NC(=O)c6cc(NC(=O)c7cc(NC(=O)c8sccc8Cl)cn7C)cn6C)cn5C)cn4C)cn3C)cn2C)cn1C` ? 3.1 (0.6) × 10^8 M^−1

Which Equilibrium association constant, G-C value belongs to `CN(C)CCCNC(=O)CCNC(=O)c1cc(NC(=O)c2cc(NC(=O)c3cc(NC(=O)c4nc(NC(=O)CCCNC(=O)c5cc(NC(=O)c6cc(NC(=O)c7cc(NC(=O)c8sccc8F)cn7C)cn6C)cn5C)cn4C)cn3C)cn2C)cn1C` ? 3.7 (0.4) × 10^8 M^−1

Which Equilibrium association constant, G-C value belongs to `Cc1ccsc1C(=O)Nc1cc(C(=O)Nc2cc(C(=O)Nc3cc(C(=O)NCCCC(=O)Nc4cn(C)c(C(=O)Nc5cc(C(=O)Nc6cc(C(=O)Nc7cc(C(=O)NCCC(=O)NCCCN(C)C)n(C)c7)n(C)c6)n(C)c5)n4)n(C)c3)n(C)c2)n(C)c1` ? 1.0 (0.4) × 10^7 M^−1

The origin of these recorded values is patent US7713701B2.
